Entries and their half-life
# protocol: in vitro
# run conditions: rat, plasma, Surrogate activity-based Plasma stability t½
Bridge positions count the residues as written; N and C are the ends. Square brackets hold non-standard residues; d marks the D form. Peptide text beside a SMILES is read from it. pGlu = O=C1CC[C@@H](C(=O)O)N1; d(hCys) = N[C@H](CCS)C(=O)O; Nle = CCCC[C@H](N)C(=O)O
State just the number; it will be interpreted in h.

// solved cases for half-life follow
CCCC[C@@H]1NC(=O)[C@@H]2CCCN2C(=O)[C@@H](NC(=O)[C@H](CCCCN)NC(=O)[C@H](Cc2c[nH]cn2)NC(=O)[C@@H](C)NC(=O)[C@H](CC(C)C)NC(=O)[C@H](CCCNC(=N)N)NC(=O)[C@@H]2CCCN2C(=O)[C@H](CCCNC(=N)N)NC(=O)[C@@H]2CCC(=O)N2)CSSC[C@@H](C(=O)N[C@H](Cc2ccccc2)C(=O)O)NC1=O [Example 17, pE-R-P-R-L-a-H-K-C*-P-Nle-C*-f-OH] ([pGlu]RPRL[dA]HKCP[Nle]C[dF]-OH; disulfide 9-12): 15.1
CCCC[C@@H]1NC(=O)[C@@H]2CCCN2C(=O)CNC(=O)[C@H](CCCCN)NC(=O)[C@H](NC(=O)[C@H](CO)NC(=O)[C@H](CC(C)C)NC(=O)[C@H](CCCNC(=N)N)NC(=O)[C@@H]2CCCN2C(=O)[C@H](CCCNC(=N)N)NC(=O)[C@@H]2CCC(=O)N2)CCSSC[C@@H](C(=O)N[C@@H](Cc2ccccc2)C(=O)O)NC1=O [Example 8, pE-R-P-R-L-S-(D-hC)*-K-G-P-Nle-C*-F-OH] ([pGlu]RPRLS[d(hCys)]KGP[Nle]CF-OH; disulfide 7-12): 1.29

Okay, now this compound:
Tell me the measured half-life of CCCC[C@@H]1NC(=O)[C@@H]2CCCN2C(=O)CNC(=O)[C@H](CCCCN)NC(=O)[C@H](NC(=O)[C@H](CO)NC(=O)[C@H](CC(C)C)NC(=O)[C@H](CCCNC(=N)N)NC(=O)[C@@H]2CCCN2C(=O)[C@H](CCCNC(=N)N)NC(=O)[C@@H]2CCC(=O)N2)CCSSCC[C@H](C(=O)N[C@@H](Cc2ccccc2)C(=O)O)NC1=O [Example 7] ([pGlu]RPRLS[d(hCys)]KGP[Nle][d(hCys)]F-OH; disulfide 7-12) , please.
2.01

---

Reported pEC50 values for a set of molecules
# tested on: hAPJ (Homo sapiens)
# Sequence (P35414 1-380): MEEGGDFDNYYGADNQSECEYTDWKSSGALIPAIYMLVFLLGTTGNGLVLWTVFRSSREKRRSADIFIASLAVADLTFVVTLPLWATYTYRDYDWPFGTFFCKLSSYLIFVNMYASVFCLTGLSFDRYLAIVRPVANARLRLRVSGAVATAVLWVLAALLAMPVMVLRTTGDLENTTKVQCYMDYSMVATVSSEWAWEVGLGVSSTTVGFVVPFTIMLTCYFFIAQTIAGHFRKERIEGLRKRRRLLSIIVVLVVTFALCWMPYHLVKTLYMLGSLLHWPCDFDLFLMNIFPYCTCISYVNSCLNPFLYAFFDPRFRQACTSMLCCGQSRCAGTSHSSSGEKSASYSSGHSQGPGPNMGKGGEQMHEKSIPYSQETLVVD
# protocol: hAPJ Calcium Flux Assay
# run conditions: Chem-5 APJ stable cells, FLIPR calcium flux; read-out: hAPJ Ca2+ Flux EC50
Bridge positions count the residues as written; N and C are the ends. Square brackets hold non-standard residues; d marks the D form. Peptide text beside a SMILES is read from it. pGlu = O=C1CC[C@@H](C(=O)O)N1; d(hCys) = N[C@H](CCS)C(=O)O; dNle = CCCC[C@@H](N)C(=O)O; hCys = N[C@@H](CCS)C(=O)O; Nle = CCCC[C@H](N)C(=O)O
// field semantics: pEC50 = negative decimal log of concentration (mol/L)

CCCC[C@@H]1NC(=O)[C@@H]2CCCN2C(=O)[C@@H](NC(=O)[C@H](CCCCN)NC(=O)[C@H](Cc2c[nH]cn2)NC(=O)[C@@H](CO)NC(=O)[C@H](CC(C)C)NC(=O)[C@H](CCCNC(=N)N)NC(=O)[C@@H]2CCCN2C(=O)[C@H](CCCNC(=N)N)NC(=O)[C@@H]2CCC(=O)N2)CSSC[C@@H](C(=O)N[C@H](Cc2ccccc2)C(=O)O)NC1=O [Example 21, pE-R-P-R-L-s-H-K-C*-P-Nle-C*-f-OH] ([pGlu]RPRL[dS]HKCP[Nle]C[dF]-OH; disulfide 9-12): 8.01
CCCC[C@@H]1NC(=O)[C@@H]2CCCN2C(=O)CNC(=O)[C@H](CCCCN)NC(=O)[C@@H](NC(=O)[C@H](CO)NC(=O)[C@H](CC(C)C)NC(=O)[C@H](CCCNC(=N)N)NC(=O)[C@@H]2CCCN2C(=O)[C@H](CCCNC(=N)N)NC(=O)[C@@H]2CCC(=O)N2)CSSC[C@@H](C(=O)N[C@@H](Cc2ccccc2)C(=O)O)NC1=O [Example 3, pE-R-P-R-L-S-C*-K-G-P-Nle-C*-F-OH] ([pGlu]RPRLSCKGP[Nle]CF-OH; disulfide 7-12): 6.89
CCCC[C@@H]1NC(=O)[C@@H]2CCCN2C(=O)CNC(=O)[C@H](CCCCN)NC(=O)[C@H](NC(=O)[C@H](CO)NC(=O)[C@H](CC(C)C)NC(=O)[C@H](CCCNC(=N)N)NC(=O)[C@@H]2CCCN2C(=O)[C@H](CCCNC(=N)N)NC(=O)[C@@H]2CCC(=O)N2)CCSSC[C@@H](C(=O)N[C@@H](Cc2ccccc2)C(=O)O)NC1=O [Example 8, pE-R-P-R-L-S-(D-hC)*-K-G-P-Nle-C*-F-OH] ([pGlu]RPRLS[d(hCys)]KGP[Nle]CF-OH; disulfide 7-12): 6.21
CCCC[C@H]1NC(=O)[C@@H]2CCCN2C(=O)CNC(=O)[C@H](CCCCN)NC(=O)[C@H](Cc2c[nH]cn2)NC(=O)[C@H](CO)NC(=O)[C@@H](NC(=O)[C@H](CCCNC(=N)N)NC(=O)[C@@H]2CCCN2C(=O)[C@H](CCCNC(=N)N)NC(=O)[C@@H]2CCC(=O)N2)CCSSC[C@@H](C(=O)N[C@H](Cc2ccc(O)cc2)C(=O)O)NC1=O [Example 2, pE-R-P-R-hC*-S-H-K-G-P-(D-Nle)-C*-y-OH] ([pGlu]RPR[hCys]SHKGP[dNle]C[dY]-OH; disulfide 5-12): 6.81
CCCC[C@@H]1NC(=O)[C@@H]2CCCN2C(=O)[C@@H](NC(=O)[C@H](CCCCN)NC(=O)[C@@H](C)NC(=O)[C@H](CO)NC(=O)[C@H](CC(C)C)NC(=O)[C@H](CCCNC(=N)N)NC(=O)[C@@H]2CCCN2C(=O)[C@H](CCCNC(=N)N)NC(=O)[C@@H]2CCC(=O)N2)CSSC[C@@H](C(=O)N[C@H](Cc2ccccc2)C(=O)O)NC1=O [Example 16, pE-R-P-R-L-S-a-K-C*-P-Nle-C*-f-OH] ([pGlu]RPRLS[dA]KCP[Nle]C[dF]-OH; disulfide 9-12): 7.48

Turning to the following molecule.
Quick check: pEC50 of CCCC[C@@H]1NC(=O)[C@@H]2CCCN2C(=O)CNC(=O)[C@H](CCCCN)NC(=O)[C@@H](NC(=O)[C@H](CO)NC(=O)[C@H](CC(C)C)NC(=O)[C@H](CCCNC(=N)N)NC(=O)[C@@H]2CCCN2C(=O)[C@H](CCCNC(=N)N)NC(=O)[C@@H]2CCC(=O)N2)CSSC[C@H](C(=O)N[C@@H](Cc2ccccc2)C(=O)O)NC1=O [Example 11, pE-R-P-R-L-S-C*-K-G-P-Nle-c*-F-OH] ([pGlu]RPRLSCKGP[Nle][dC]F-OH; disulfide 7-12) ?
6.95
